system: HIV-1 wild-type (R8) virus; test: Viral KINetics in Green cells (VIKING) assay, HIV-1 replication in MT4-GFP reporter cells; type: cell-based; conditions: Human immunodeficiency virus 1, 10% normal human serum, MT4-GFP cells, HIV-1 wild-type (R8); read-out: Viking (10% NHS), IC50
quantityName: pIC50
Please express pIC50 as -log10 of the molar concentration.

# example entries with known answers
>>> resultvalue("C#C[C@]1(CO)O[C@@H](n2ccc3c(NC(=O)OCCC45CC6CC(CC(C6)C4)C5)nc(Cl)nc32)C[C@@H]1O")
6.47
>>> resultvalue("C#C[C@]1(COC(=O)CC23CC(C2)C3)O[C@@H](n2ccc3c(N)nc(Cl)nc32)C[C@@H]1OC(=O)CC12CC(C1)C2")
8.07
>>> resultvalue("C#C[C@]1(CO)O[C@@H](n2ccc3c(N)nc(Cl)nc32)C[C@@H]1OC(=O)OCCOC(C)=O")
8.49
>>> resultvalue("C#C[C@]1(COC(=O)OCCCC)O[C@@H](n2ccc3c(N)nc(Cl)nc32)C[C@@H]1OC(=O)OCC")
7.68
>>> resultvalue("C#C[C@]1(COC(=O)OCc2cccnc2)O[C@@H](n2ccc3c(N)nc(Cl)nc32)C[C@@H]1OC(=O)OCC")
7.60

query: Given "C#C[C@]1(CO)O[C@@H](n2ccc3c(NC(=O)OCCCCCCCCCC)nc(Cl)nc32)C[C@@H]1O" , respond with its pIC50.
result: 6.11

query: Given "C#C[C@]1(CO)O[C@@H](n2ccc3c(N)nc(Cl)nc32)C[C@@H]1OC(=O)OCC1CCCCC1" , respond with its pIC50.
result: 8.46

query: Given "C#C[C@]1(CO)O[C@@H](n2ccc3c(NC(=O)OCCCCCCCCCCCCCC)nc(Cl)nc32)C[C@@H]1O" , respond with its pIC50.
result: 5.83

###

test: Aqueous solubility in PBS, pH 7.4; type: physicochemical; conditions: phosphate buffered saline, pH 7.4, aqueous buffer, thermodynamic from solid, pH 7.4 phosphate buffered saline, 24 hours, amorphous or crystalline material; read-out: Aqu. Solubility
The compounds listed here are annotated with their solubility at 24 h.

>>> resultvalue("C#C[C@]1(COC(=O)c2ccccn2)O[C@@H](n2ccc3c(N)nc(Cl)nc32)C[C@@H]1OC(=O)c1ccccn1")
"49 µg/mL"
>>> resultvalue("C#C[C@]1(COC(=O)CCCC[C@@H]2SC[C@@H]3NC(=O)N[C@@H]32)O[C@@H](n2ccc3c(N)nc(Cl)nc32)C[C@@H]1OC(=O)CCCc1ccccc1")
"< 1 µg/mL"
>>> resultvalue("C#C[C@]1(COC(=O)CCCCCCCCC)O[C@@H](n2ccc3c(N)nc(Cl)nc32)C[C@@H]1OC(C)=O")
"< 1 µg/mL"
>>> resultvalue("C#C[C@]1(CO)O[C@@H](n2ccc3c(NC(=O)c4ccccc4)nc(Cl)nc32)C[C@@H]1O")
"34 µg/mL"
>>> resultvalue("C#C[C@]1(COC(=O)CCCC[C@@H]2SC[C@@H]3NC(=O)N[C@@H]32)O[C@@H](n2ccc3c(N)nc(Cl)nc32)C[C@@H]1OC(=O)CCCC[C@@H]1SC[C@@H]2NC(=O)N[C@@H]21")
"< 1 µg/mL"

query: Given "C#C[C@]1(CO)O[C@@H](n2ccc3c(N)nc(Cl)nc32)C[C@@H]1OC(=O)CCc1ccccc1" , respond with its solubility at 24 h.
result: 2 µg/mL

query: Given "C#C[C@]1(COC(=O)OCc2ccccc2)O[C@@H](n2ccc3c(N)nc(Cl)nc32)C[C@@H]1OC(=O)OCCCCCCCC" , respond with its solubility at 24 h.
result: < 1 µg/mL

###

The compounds listed here are annotated with their pIC50.
system: HIV-1 wild-type (R8) virus; assay: Viral KINetics in Green cells (VIKING) assay, HIV-1 replication in MT4-GFP reporter cells; assay type: cell-based; details: Human immunodeficiency virus 1, 10% normal human serum, MT4-GFP cells, HIV-1 wild-type (R8); read-out: Viking (10% NHS), IC50
Please express pIC50 as -log10 of the molar concentration.

# example entries with known answers
>>> resultvalue("C#C[C@]1(COC(=O)OC(C)C)O[C@@H](n2ccc3c(N)nc(Cl)nc32)C[C@@H]1O")
8.66
>>> resultvalue("C#C[C@]1(COC(=O)c2ccccc2)O[C@@H](n2ccc3c(N)nc(Cl)nc32)C[C@@H]1O")
8.55
>>> resultvalue("C#C[C@]1(COC(=O)CCCc2ccccc2)O[C@@H](n2ccc3c(N)nc(Cl)nc32)C[C@@H]1O")
8.51
>>> resultvalue("C#C[C@]1(COC(=O)Cc2ccc(Br)cc2)O[C@@H](n2ccc3c(N)nc(Cl)nc32)C[C@@H]1OC(=O)Cc1ccc(Br)cc1")
7.92
>>> resultvalue("C#C[C@]1(CO)O[C@@H](n2ccc3c(NC(=O)OCCCCCCCC)nc(Cl)nc32)C[C@@H]1O")
6.39
>>> resultvalue("C#C[C@]1(CO)O[C@@H](n2ccc3c(N)nc(Cl)nc32)C[C@@H]1OC(=O)OCC(CC)CC")
8.17
>>> resultvalue("C#C[C@]1(CO)O[C@@H](n2ccc3c(NC(=O)CCC45CC6CC(CC(C6)C4)C5)nc(Cl)nc32)C[C@@H]1O")
8.00
>>> resultvalue("C#C[C@]1(CO)O[C@@H](n2ccc3c(N)nc(Cl)nc32)C[C@@H]1OC(=O)CCCCCCCCCCCCC")
8.15

query: Given "C#C[C@]1(COC(=O)OCc2ccccc2)O[C@@H](n2ccc3c(N)nc(Cl)nc32)C[C@@H]1OC(=O)OCCCC" , respond with its pIC50.
result: 8.32

query: Given "C#C[C@]1(COC(=O)OCC23CC4CC(CC(C4)C2)C3)O[C@@H](n2ccc3c(N)nc(Cl)nc32)C[C@@H]1O" , respond with its pIC50.
result: 8.24

###

The compounds listed here are annotated with their solubility at 24 h.
test: Aqueous solubility in PBS, pH 7.4; type: physicochemical; settings: pH 7.4, aqueous buffer, thermodynamic from solid, pH 7.4 phosphate buffered saline, 24 hours, amorphous or crystalline material; read-out: Aqu. Solubility
Give the number; µg/mL is assumed, so skip it.

>>> resultvalue("C#C[C@]1(COP(=O)(N[C@@H](C)C(=O)OC(C)C)Oc2ccc3ccccc3c2)O[C@@H](n2ccc3c(N)nc(Cl)nc32)C[C@@H]1O (some centres unmarked)")
30

We next turn to a different compound, shown below.
query: Given "C#C[C@]1(CO[P@@](=O)(N[C@@H](C)C(=O)OC(C)C)Oc2ccccc2)O[C@@H](n2ccc3c(N)nc(Cl)nc32)C[C@@H]1O" , respond with its solubility at 24 h.
result: 304

###

test: Aqueous solubility in PBS, pH 7.4; type: physicochemical; settings: phosphate buffered saline, pH 7.4, aqueous buffer, thermodynamic from solid, pH 7.4 phosphate buffered saline, 24 hours, amorphous or crystalline material; read-out: Aqu. Solubility
quantityName: solubility at 24 h

>>> resultvalue("C#C[C@]1(COC(=O)CCCCCCCCC)O[C@@H](n2ccc3c(N)nc(Cl)nc32)C[C@@H]1O [Example 20]")
"< 1 µg/mL"
>>> resultvalue("C#C[C@]1(COC(=O)CCC23CC4CC(CC(C4)C2)C3)O[C@@H](n2ccc3c(N)nc(Cl)nc32)C[C@@H]1O [Example 62]")
"< 1 µg/mL"

We next turn to a different molecule, shown below.
query: Given C#C[C@]1(CO)O[C@@H](n2ccc3c(N)nc(Cl)nc32)C[C@@H]1OC(=O)CCCCCCCCC [Example 4] , respond with its solubility at 24 h.
result: < 1 µg/mL

###

The compounds listed here are annotated with their solubility at 24 h.
test: Aqueous solubility in PBS, pH 7.4; type: physicochemical; conditions: phosphate buffered saline, pH 7.4, aqueous buffer, thermodynamic from solid, pH 7.4 phosphate buffered saline, 24 hours, amorphous or crystalline material; read-out: Aqu. Solubility

>>> resultvalue("C#C[C@]1(COC(=O)CCCCCCCCCCCCC)O[C@@H](n2ccc3c(N)nc(Cl)nc32)C[C@@H]1O [Example 87]")
"< 1 µg/mL"

query: Given C#C[C@]1(COC(=O)Cc2ccc(Br)cc2)O[C@@H](n2ccc3c(N)nc(Cl)nc32)C[C@@H]1OC(=O)Cc1ccc(Br)cc1 [Example 227] , respond with its solubility at 24 h.
result: < 1 µg/mL

query: Given C#C[C@]1(COC(=O)CCCCCCCCCCC)O[C@@H](n2ccc3c(N)nc(Cl)nc32)C[C@@H]1O [Example 90] , respond with its solubility at 24 h.
result: < 1 µg/mL

###

test system: HIV-1 wild-type (R8) virus; experiment: Viral KINetics in Green cells (VIKING) assay, HIV-1 replication in MT4-GFP reporter cells; format: cell-based; conditions: Human immunodeficiency virus 1, 10% normal human serum, MT4-GFP cells, HIV-1 wild-type (R8); read-out: Viking (10% NHS), IC50
quantityName: IC50 (nM)
Give the number; nM is assumed, so skip it.

>>> resultvalue("C#C[C@]1(CO)O[C@@H](n2ccc3c(N)nc(Cl)nc32)C[C@@H]1OC(=O)CCC")
11
>>> resultvalue("C#C[C@]1(CO)O[C@@H](n2ccc3c(N)nc(Cl)nc32)C[C@@H]1OC(=O)OCCCc1ccccc1")
6
>>> resultvalue("C#C[C@]1(COC(=O)OCc2ccn(C)c(=O)c2)O[C@@H](n2ccc3c(N)nc(Cl)nc32)C[C@@H]1OC(=O)OCc1ccccc1")
8.9
>>> resultvalue("C#C[C@]1(COC(=O)OCc2ccccc2)O[C@@H](n2ccc3c(N)nc(Cl)nc32)C[C@@H]1OC(=O)OCCCCCC")
6.5

query: Given "C#C[C@]1(COC(=O)OCc2ccccc2)O[C@@H](n2ccc3c(N)nc(Cl)nc32)C[C@@H]1OC(=O)OCc1cccnc1" , respond with its IC50.
result: 13
